Reported Kd values for the following compounds.
biological target: iNOS (Mus musculus); assay: Ferric difference spectral binding assay; set-up: species or system murine; conditions: read-out: Ks (spectral binding constant), imidazole displacement
quantity-name: Kd (µM)

>>> meas_value("CN(O)C(=N)NCCC[C@H](N)C(=O)O [NHMA, N^ω-hydroxy-N^ω-methyl-L-arginine]")
34
>>> meas_value("CONC(=N)NCCC[C@H](N)C(=O)O")
122
>>> meas_value("N=C(NO)NCCC[C@H](N)C(=O)O [NHA, N^ω-hydroxy-L-arginine, reference compound]")
29
>>> meas_value("CCONC(=N)NCCC[C@H](N)C(=O)O")
120
>>> meas_value("CON(C)C(=N)NCCC[C@H](N)C(=O)O")
70

Data provenance: paper PMC3678535
